// pIC50 lookup, one value per entry
Test system: ZAP-70 (Homo sapiens)
Construct: endogenous in cells
Run description: ZAP-70 kinobeads assay
Study conditions: cell lysate, dot blot with ZAP-70 antibody
pIC50: −log10 of the molar value.
Value kind: pIC50

> print(dat)
                                 item.smiles  value.kind   measurement
 1  COc1ccc(Nc2nc(Nc3ccnn3CC(C)C)ncc2Cl)c(NS(C)(=O)=O)c1       pIC50  5.00 to 6.00
 2  COc1ccc(Nc2nc(Nc3c(C)cnn3C)ncc2Cl)c(NS(C)(=O)=O)c1       pIC50  5.00 to 6.00
 3  CS(=O)(=O)Nc1ccccc1Nc1nc(Nc2ccon2)ncc1Cl       pIC50  5.00 to 6.00
 4  CCn1cc(Nc2ncc(Cl)c(Nc3ccccc3NS(C)(=O)=O)n2)c(C)n1       pIC50  6.00 to 7.00
 5  Cn1ccc(Nc2ncc(F)c(Nc3ccccc3NS(C)(=O)=O)n2)n1       pIC50  5.00 to 6.00
 6  COc1ccc(Nc2nc(Nc3c[nH]nc3C)ncc2Cl)c(NS(C)(=O)=O)c1       pIC50        ≥ 7.00
 7  COc1ccc(Nc2nc(Nc3ccon3)ncc2F)c(NS(C)(=O)=O)c1       pIC50  5.00 to 6.00
 8  COc1ccc(Nc2nc(Nc3nonc3OC)ncc2Cl)c(NS(C)(=O)=O)c1       pIC50  5.00 to 6.00
 9  COc1ccc(Nc2nc(Nc3nonc3C)ncc2Cl)c(NS(C)(=O)=O)c1       pIC50  5.00 to 6.00
10  COc1ccc(Nc2nc(Nc3cn(C)nc3C)ncc2F)c(NS(C)(=O)=O)c1       pIC50  6.00 to 7.00

###

# maps each entry to its IC50
Test system: ZAP-70 (Homo sapiens)
Construct: endogenous in cells
Sequence (P43403 1-619): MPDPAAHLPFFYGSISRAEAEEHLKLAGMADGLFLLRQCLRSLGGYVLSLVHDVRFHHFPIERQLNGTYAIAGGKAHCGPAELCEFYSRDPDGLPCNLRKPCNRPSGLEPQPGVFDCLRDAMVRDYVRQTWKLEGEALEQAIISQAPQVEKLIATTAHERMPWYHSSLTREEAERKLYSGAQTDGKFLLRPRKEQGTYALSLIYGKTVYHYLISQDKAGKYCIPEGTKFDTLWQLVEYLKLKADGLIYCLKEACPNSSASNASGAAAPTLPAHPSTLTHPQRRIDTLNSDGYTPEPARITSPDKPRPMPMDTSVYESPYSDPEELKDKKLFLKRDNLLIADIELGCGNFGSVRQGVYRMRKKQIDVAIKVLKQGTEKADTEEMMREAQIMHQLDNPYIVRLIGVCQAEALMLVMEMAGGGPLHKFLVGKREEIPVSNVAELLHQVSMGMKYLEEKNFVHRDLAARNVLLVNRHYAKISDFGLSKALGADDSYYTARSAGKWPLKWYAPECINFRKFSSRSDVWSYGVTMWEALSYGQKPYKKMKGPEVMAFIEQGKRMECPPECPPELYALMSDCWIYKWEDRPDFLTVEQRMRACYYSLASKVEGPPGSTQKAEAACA
Run description: ZAP-70 kinobeads assay
Study conditions: cell lysate, dot blot with ZAP-70 antibody
Value kind: IC50

> print(dat)
                                item.smiles  value.kind     measurement
1  Cc1nn(C)cc1Nc1ncc(F)c(Nc2ccccc2NS(C)(=O)=O)n1        IC50  100 to 1000 nM
2  COc1ccc(Nc2nc(Nc3cc(C)nn3CC(C)C)ncc2Cl)c(NS(C)(=O)=O)c1        IC50  100 to 1000 nM
3  COc1ccc(Nc2nc(Nc3cn[nH]c3)ncc2F)c(NS(C)(=O)=O)c1        IC50  100 to 1000 nM
4  CCCCn1nccc1Nc1ncc(Cl)c(Nc2ccc(OC)cc2NS(C)(=O)=O)n1        IC50  100 to 1000 nM
5  COc1ccc(Nc2nc(Nc3cc(C)nn3C)ncc2Cl)c(NS(C)(=O)=O)c1        IC50        ≤ 100 nM
